system: HEK-293T; test: Multiplex assay against HEK293T; type: toxicity, cell-based; details: human, 24 h, 10 µM, compound concentration 10 uM, replicate 2
Entries and their Population Pyknosed Nuclei (%) values follow.
A number alone suffices; assume %.

The examples below pair each entry with its known result.
molecule	Population Pyknosed Nuclei (%)
CCCC(CCC)C(=O)O	5
C[C@@H]1C[C@H]2[C@@H]3CCC4=CC(=O)C=C[C@]4(C)[C@@]3(F)[C@@H](O)C[C@]2(C)[C@@]1(O)C(=O)CO	11
CC(=O)O[C@H]1C(=O)[C@@]2(C)[C@H]([C@H](OC(=O)c3ccccc3)[C@]3(O)C[C@H](OC(=O)[C@H](O)[C@@H](NC(=O)c4ccccc4)c4ccccc4)C(C)=C1C3(C)C)[C@]1(OC(C)=O)CO[C@@H]1C[C@@H]2O	17
CCCn1c(=O)c2[nH]c(C3CCCC3)nc2n(CCC)c1=O	13
CCCN1CCC[C@@H]2Cc3n[nH]cc3C[C@H]21.Cl [QUINPIROLE HYDROCHLORIDE]	13

HEK-293T Population Pyknosed Nuclei (%) of `Cc1ccc(/C(=C\CN2CCCC2)c2ccccn2)cc1` is 10

Observed Population Pyknosed Nuclei (%) on HEK-293T, entry `Cc1ccc(-c2ccc(F)cc2COc2ccc(CCC(=O)O)cc2)cc1` , equals 6

Per the reported HEK-293T data, `O=C(O)Cc1ccccc1Nc1c(Cl)cccc1Cl` has Population Pyknosed Nuclei (%) of 14

Bench note, HEK-293T: entry CN1CCN2c3ncccc3Cc3ccccc3C2C1 (configuration not stated) , its Population Pyknosed Nuclei (%) = 13

Observed Population Pyknosed Nuclei (%) on HEK-293T, entry `N#Cc1c(N)nc(SCc2csc(-c3ccc(Cl)cc3)n2)c(C#N)c1-c1ccc(OCCO)cc1` , equals 26

Reported Population Pyknosed Nuclei (%) (HEK-293T) for entry `CC1(COc2ccc3c(c2)ncn3-c2ccc3cccc(N4CCC(N)CC4)c3n2)COC1` is 14

Known value: HEK-293T Population Pyknosed Nuclei (%) of the molecule `c1cc(OCCCN2CCCCC2)ccc1CN1CCCCC1` equals 11

These measurements were taken from ChEMBL document CHEMBL5058577.
